Target: human cathepsin S (Homo sapiens, UniProt P25774)
Construct: purchased Enzo Life Sciences, Lörrach, Germany
Sequence (P25774 115-331): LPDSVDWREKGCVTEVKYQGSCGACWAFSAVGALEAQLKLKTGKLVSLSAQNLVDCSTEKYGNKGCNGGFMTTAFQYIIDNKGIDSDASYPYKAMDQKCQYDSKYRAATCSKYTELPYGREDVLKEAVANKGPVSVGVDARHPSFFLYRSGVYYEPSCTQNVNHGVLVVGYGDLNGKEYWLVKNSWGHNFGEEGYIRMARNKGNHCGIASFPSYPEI
Test: Cathepsin S inhibition assay (Cbz-Phe-Arg-AMC)
Type: biochemical
Conditions: 20 µM inhibitor, 60 min; read-out: Residual activity @ 20 µM (%) Cat S
Quick list: remaining activity at 20 µM per entry.
Provide only the numeric value, understood in %.

Field: example entries. Status: answers known.
compound	assay_system	remaining activity at 20 µM [%]
CC(C)CC(NC(=O)Oc1ccc(NC(=O)C(c2ccccc2)c2ccccc2)c(Br)c1)C(=O)N1CCCC1C(=O)O (stereo not drawn) [Compound 27]	human cathepsin S (Homo sapiens, UniProt P25774)	60
CC(C)CC(OC(=O)Nc1ccc(Cl)cc1)C(=O)N[C@@H](Cc1ccccc1)C(=O)O (stereo partly drawn) [Compound 16]	human cathepsin S (Homo sapiens, UniProt P25774)	56
CC(C)C[C@H](NC(=O)Nc1ccc(Cl)cc1)C(=O)N[C@@H](Cc1ccccc1)C(=O)O [Compound 18]	human cathepsin S (Homo sapiens, UniProt P25774)	78
COC(=O)C(Cc1ccccc1)NC(=O)C(CC(C)C)NC(=O)Oc1ccc(Cl)cc1 (stereo not drawn) [Compound 3]	human cathepsin S (Homo sapiens, UniProt P25774)	79
CC(C)C[C@H](NC(=O)Oc1cccc(Cl)c1)C(=O)N1CCC[C@H]1C(=O)O [Compound 23]	human cathepsin S (Homo sapiens, UniProt P25774)	89

Task item: GET /values?readout=remaining activity at 20 µM&item= CC(C)C[C@H](NC(=O)Oc1ccc(NC(=O)Cc2ccccc2)c(Cl)c1)C(=O)N1CCC[C@H]1C(=O)O [Compound 24]
Reply: 90

Task item: Param item: CC(C)CC(OC(=O)Nc1ccc(Cl)cc1)C(=O)N1CCC[C@H]1C(=O)O (stereo partly drawn) [Compound 17]
Reply: 93
